Data provenance: patent US11466047B2

Biological target: full-length WT STING (Homo sapiens (Human), UniProt Q86WV6, H232R)
Sequence (Q86WV6 whole entry, looked up, stated change not applied): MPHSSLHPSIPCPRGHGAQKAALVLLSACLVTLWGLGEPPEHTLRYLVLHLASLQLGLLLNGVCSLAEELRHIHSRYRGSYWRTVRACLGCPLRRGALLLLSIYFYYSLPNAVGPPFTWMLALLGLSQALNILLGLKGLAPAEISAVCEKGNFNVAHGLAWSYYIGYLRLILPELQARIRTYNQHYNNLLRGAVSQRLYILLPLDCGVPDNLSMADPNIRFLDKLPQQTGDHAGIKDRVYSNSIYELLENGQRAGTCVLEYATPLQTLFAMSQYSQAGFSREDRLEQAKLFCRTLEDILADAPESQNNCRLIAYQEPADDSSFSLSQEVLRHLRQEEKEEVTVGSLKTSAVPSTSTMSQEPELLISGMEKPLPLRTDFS
Assay: 3H-cGAMP filtration binding assay (WT STING)
Conditions: competition with tritiated cGAMP ligand, WT STING membrane; read-out: EC50
Description: The ability of compounds to bind STING is quantified by their ability to compete with tritiated cGAMP ligand for human STING receptor membrane using a radioactive filter-binding assay. […] 16 nM of [^3H] c-GAMP ligand was prepared by diluting into assay buffer, and 50 uL of this working stock was manually added to each well of the assay plate. […] Tritium levels for each reaction well were then measured using a PerkinElmer TopCount plate reader. […]
# EC50 annotations
recordedMetric: EC50 (nM)

- Nc1nc2c(ncn2[C@@H]2O[C@@H]3COP(=S)(S)O[C@H]4[C@H]5OC[C@]4(COP(O)(=S)O[C@@H]2[C@H]3F)O[C@H]5n2cnc3c(N)ncnc32)c(=O)[nH]1 (some centres unmarked): 4390
- Nc1nc2c(ncn2[C@@H]2O[C@@H]3COP(=S)(S)O[C@H]4[C@H](F)[C@H](n5cnc6c(N)ncnc65)O[C@@H]4COP(=O)(O)O[C@@H]2[C@@H]3F)c(=O)[nH]1 (some centres unmarked): 1
- Nc1nc2c(ncn2[C@@H]2O[C@@H]3COP(O)(=S)O[C@H]4C[C@H](n5ccc6c(N)ncnc65)O[C@@H]4COP(=S)(S)O[C@@H]2C3)c(=O)[nH]1 (single isomer, unassigned): 244
- Nc1nc2c(ncn2[C@@H]2O[C@@H]3COP(O)(=S)O[C@H]4[C@H]5OC[C@]4(COP(=S)(S)O[C@@H]2[C@H]3F)O[C@H]5n2cnc3c(N)ncnc32)c(=O)[nH]1 (single isomer, unassigned): 79
- Nc1nc2c(ncn2[C@@H]2S[C@@H]3COP(=S)(S)O[C@H]4[C@H](F)[C@H](n5cnc6c(N)ncnc65)O[C@@H]4COP(=O)(O)O[C@@H]2[C@@H]3O)c(=O)[nH]1 (some centres unmarked): 3
